# Test system: HSkMC
# assay_remarks: cytotoxicity call (relative viability < 0.9)
# measurement_parameters: 10 µM
The whole screen tested about 39,000 compounds, of which about 1,500 (3.8%) were called active. The list comes from a sample in which actives are over-represented; it also holds close analogues and randomly drawn compounds.
A correct response names exactly one class from yes (1) for active, no (0) for inactive

Given C[C@@H]1CN([C@@H](C)CO)C(=O)Cc2cc(NS(=O)(=O)c3cn(C)cn3)ccc2O[C@H]1CN(C)C(=O)Nc1ccccc1 , state the outcome it received in this test. no (0)

Given Cc1noc(C)c1NC(=O)Nc1cccc2c1O[C@@H](CN(C)C(=O)Nc1ccc(C(F)(F)F)cc1)[C@H](C)CN([C@H](C)CO)C2=O , state the outcome it received in this test. no (0)

Given C[C@@H]1CCCCO[C@H](CN(C)S(=O)(=O)c2cccs2)[C@H](C)CN([C@@H](C)CO)C(=O)c2cc(NC(=O)Nc3ccccc3)ccc2O1 , state the outcome it received in this test. no (0)

Given C[C@H](CO)N1C[C@H](C)[C@H](CN(C)Cc2ccc(-c3ccccc3)cc2)Oc2ccc(NC(=O)NC3CCCCC3)cc2CC1=O , state the outcome it received in this test. no (0)

Given N#Cc1ccc(Oc2ccccn2)cc1 , state the outcome it received in this test. no (0)

Given C[C@@H]1CCCCO[C@H](CN(C)S(=O)(=O)c2ccccc2)[C@H](C)CN([C@@H](C)CO)C(=O)c2cc(NC(=O)Nc3ccc(F)cc3)ccc2O1 , state the outcome it received in this test. no (0)

Given C[C@H]1CCCCO[C@H](CN(C)C(=O)Nc2ccc(C(F)(F)F)cc2)[C@@H](C)CN([C@@H](C)CO)C(=O)c2cc(NS(=O)(=O)c3ccccc3)ccc2O1 , state the outcome it received in this test. yes (1)

Given COc1ccc(NC(=O)N(C)C[C@H]2Oc3ccc(NC(=O)Nc4cccc5ccccc45)cc3C(=O)N([C@@H](C)CO)C[C@H]2C)cc1 , state the outcome it received in this test. no (0)

Given Cc1ccc(S(=O)(=O)N(C)C[C@@H]2Oc3ccc(NS(=O)(=O)c4cccs4)cc3CC(=O)N([C@@H](C)CO)C[C@@H]2C)cc1 , state the outcome it received in this test. no (0)

Given Cc1noc(C)c1S(=O)(=O)N(C)C[C@H]1OCCCC[C@@H](C)Oc2ccc(NC(=O)Nc3ccccc3)cc2C(=O)N([C@@H](C)CO)C[C@@H]1C , state the outcome it received in this test. no (0)

Given Cc1ccc(S(=O)(=O)Nc2ccc3c(c2)CC(=O)N([C@@H](C)CO)C[C@@H](C)[C@H](CN(C)C(=O)Nc2ccc(C(F)(F)F)cc2)O3)cc1 , state the outcome it received in this test. no (0)

Given C[C@@H]1CN([C@@H](C)CO)C(=O)c2cc(NS(=O)(=O)c3ccccc3)ccc2O[C@@H](C)CCCCO[C@@H]1CN(C)C(=O)Nc1ccc(C(F)(F)F)cc1 , state the outcome it received in this test. yes (1)

Given CC(=O)n1cc([C@H]2C=C(C(=O)NCc3ccccc3)O[C@@H](OCc3ccc(CO)cc3)C2)c2ccccc21 , state the outcome it received in this test. no (0)

====

# Test system: HSkMC
# assay_remarks: cytotoxicity call (relative viability < 0.9)
# measurement_parameters: 10 µM
The campaign covered roughly 39,000 compounds. About 1,500 (3.8%) were called active. For the sample, actives were picked, then their nearest neighbours and some compounds at random.
quantity_measured: cytotoxicity call

C[C@@H]1CN([C@@H](C)CO)S(=O)(=O)c2ccc(/C=C/c3ccccc3)cc2O[C@@H]1CN(C)C(=O)Nc1cc(F)ccc1F inactive
C[C@H](CO)N1C[C@H](C)[C@H](CN(C)S(=O)(=O)c2cn(C)cn2)Oc2c(NC(=O)c3cnccn3)cccc2C1=O inactive
C[N+](C)(C)CCCCCC[N+](C)(C)C.[Br-].[Br-] inactive

====

# System: HSkMC
# assay_remarks: cytotoxicity call (relative viability < 0.9)
# measurement_parameters: 10 µM
Among all 39,000 compounds or so, about 1,500 (3.8%) were called active. Many of the other results were omitted from the sample, so actives are more common in it than they were.
A correct response names exactly one class from class 1 = active, class 0 = inactive

Given CCN(CC)CCOc1ccc(C(=C(Cl)c2ccccc2)c2ccccc2)cc1.O=C(O)CC(O)(CC(=O)O)C(=O)O , state the outcome it received in this test. class 0

Given C[C@@H]1CCCCO[C@@H](CN(C)C(=O)Nc2ccc3c(c2)OCO3)[C@H](C)CN([C@H](C)CO)C(=O)c2cc(NC(=O)NC3CCCCC3)ccc2O1 , state the outcome it received in this test. class 0

Given C[C@H](CO)N1C[C@H](C)[C@@H](CN(C)Cc2ccc(-c3ccccc3)cc2)Oc2ccc(NS(=O)(=O)c3ccccc3)cc2CC1=O , state the outcome it received in this test. class 0

Given C[C@@H]1CN([C@@H](C)CO)C(=O)c2cc(NC(=O)CCC(F)(F)F)ccc2O[C@@H](C)CCCCO[C@H]1CN(C)C(=O)Nc1cccc2ccccc12 , state the outcome it received in this test. class 1

Given C[C@H](CO)N1C[C@H](C)[C@@H](CN(C)C(=O)Nc2cccc3ccccc23)OCCCC[C@H](C)Oc2ccc(NC(=O)Nc3cccc4ccccc34)cc2C1=O , state the outcome it received in this test. class 0

Given C[C@@H]1CCCCO[C@@H](CN(C)C(=O)Nc2cccc3ccccc23)[C@H](C)CN([C@@H](C)CO)C(=O)c2cc(NC(=O)Nc3cccc4ccccc34)ccc2O1 , state the outcome it received in this test. class 1

Given C[C@H]1CN([C@@H](C)CO)C(=O)Cc2cc(NS(=O)(=O)c3ccccc3)ccc2O[C@H]1CN(C)Cc1ccc(-c2ccccc2)cc1 , state the outcome it received in this test. class 1

====

# Test system: HSkMC
# assay_remarks: cytotoxicity call (relative viability < 0.9)
# measurement_parameters: 10 µM
The whole screen tested about 39,000 compounds, of which about 1,500 (3.8%) were called active. Many of the other results were omitted from the sample, so actives are more common in it than they were.
A correct response names exactly one class from true for active, false for inactive

Given COc1ccc2c3c([nH]c2c1)[C@H](CO)N(C[C@]13CN(CC2CCCCC2)C1)C(=O)Nc1cccc(c1)F , state the outcome it received in this test. true

Given COc1ccc2c3c([nH]c2c1)[C@H](CO)N(CC1CCCCC1)C[C@]13CN(C1)C(=O)Nc1cccc(c1)F , state the outcome it received in this test. false

Given Cc1ccccc1S(=O)(=O)N1C[C@@H](O)COC[C@H]2O[C@H](CC(=O)N3CCOCC3)CC[C@@H]21 , state the outcome it received in this test. false

====

# System: HSkMC (human skeletal muscle cells)
# assay_remarks: cytotoxicity call (relative viability < 0.9)
# measurement_parameters: 10 µM
Among all 39,000 compounds or so, about 1,500 (3.8%) were called active. The sample as a whole holds a higher share of actives than the screen did.
A correct response names exactly one class from true for active, false for inactive

Given CCn1cc(-c2ccnc3[nH]c(-c4cccc(CN(C)C)c4)cc23)c(-c2ccc(NC(=O)N(C)C)cc2)n1 , state the outcome it received in this test. true

Given Cc1cnc(Nc2ccc(F)cc2Cl)nc1-c1c[nH]c(C(=O)N[C@H](CO)c2cccc(Cl)c2)c1 , state the outcome it received in this test. true

Given CCCCCCCCCCCCC[N+](C)(C)Cc1ccccc1 , state the outcome it received in this test. false

Given CCCCCCCCCCCCC[N+](C)(C)Cc1ccccc1.O.[Cl-] , state the outcome it received in this test. true

Given COc1ccc(S(=O)(=O)N(C)C[C@@H]2OCCCC[C@@H](C)Oc3ccc(NC(=O)c4ccccc4)cc3C(=O)N([C@H](C)CO)C[C@H]2C)cc1 , state the outcome it received in this test. false

Given C[C@@H]1CN([C@H](C)CO)C(=O)c2ccccc2-c2ccccc2CO[C@@H]1CN(C)Cc1ccc(Cl)c(Cl)c1 , state the outcome it received in this test. false

Given COc1ccc(NC(=O)Nc2ccc3c(c2)C(=O)N([C@@H](C)CO)C[C@H](C)[C@H](CN(C)CC2CCCCC2)OCCCC[C@H](C)O3)cc1 , state the outcome it received in this test. false

Given CC(N)(Cc1ccc(O)c(O)c1)C(=O)O (configuration not stated) , state the outcome it received in this test. false

Given CC(C)(C)[S@](=O)N1Cc2cc(C(=O)N3CCCCC3)nc(-c3cccc(C4=CCCC4)c3)c2[C@@H]1CCO , state the outcome it received in this test. false

Given COc1ccc(NC(=O)Nc2ccc3c(c2)C(=O)N([C@@H](C)CO)C[C@@H](C)[C@@H](CN(C)CC2CCCCC2)OCCCC[C@@H](C)O3)cc1 , state the outcome it received in this test. false

Given CC[N+](C)(CC)Cc1ccccc1 , state the outcome it received in this test. false

Given CCCCNc1ccccc1 , state the outcome it received in this test. false

Given C[C@@H]1CCCCO[C@@H](CN(C)C(=O)Nc2ccccc2)[C@@H](C)CN([C@@H](C)CO)C(=O)c2cc(NC(=O)Nc3cccc4ccccc34)ccc2O1 , state the outcome it received in this test. false

Given C[C@@H]1CN([C@@H](C)CO)C(=O)c2ccccc2-c2ccccc2CO[C@@H]1CN(C)Cc1ccc(Cl)c(Cl)c1 , state the outcome it received in this test. false

Given C[C@H]1CN([C@@H](C)CO)C(=O)c2c(c3ccccc3n2C)-c2ccccc2CO[C@@H]1CN(C)Cc1cccc(C(F)(F)F)c1 , state the outcome it received in this test. true

Given CCOC(=O)[C@@](C)(N)Cc1ccc(O)c(O)c1 , state the outcome it received in this test. true

Given COCC(=O)N1C[C@@H](C)[C@@H](OC)CN(C)C(=O)c2ccc(NC(=O)c3ccc(OC)cc3)cc2OC[C@@H]1C , state the outcome it received in this test. false
